assay: NCI Yeast Anticancer Drug Screen. Data for the rad50 strain (AID 155);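 further: 0% = growth of vehicle-only cultures of the same strain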; conditions: S. cerevisiae rad50 strain growth inhibition; at 50.0 µM; hits give high values
Compounds without any hit were thinned out: in the full panel of roughly 79,000, 15% have a hit.
resultType: growth inhibition (%)

> print(dat)
                                    compound         resulttype  result
 1   CC(C(=O)O)C(C)C(=O)O (stereo not drawn)  growth inhibition     3.3
 2                CNC(=O)N(c1ccccc1)C1CCCCC1  growth inhibition    15.8
 3                         CCOC(=O)/C=C(/C)N  growth inhibition   -19.1
 4    O=C(Cn1nnc(N2CCCCC2)n1)N/N=C/c1ccccc1O  growth inhibition   -29.7
 5  NS(=O)(=O)c1ccc(Nc2c3ccccc3nc3ncccc23)cc1  growth inhibition   -6.85
 6                     NC(=O)c1cccc[n+]1[O-]  growth inhibition   -6.25
 7             Nc1ccc(CCCCc2ccc(Cl)cc2Cl)cc1  growth inhibition    98.2
 8                         Cc1cc2ccccc2[nH]1  growth inhibition    33.9
 9                     NC(=O)N/N=C/c1ccccc1N  growth inhibition    5.85
10       CN(C)c1c2c(oc(=O)c1Cl)-c1ccccc1OCC2  growth inhibition   -14.3
11              OC1CCCSC1 (stereo not drawn)  growth inhibition    18.1
12         CC(=O)/C(=C\c1ccccc1)C(=O)CCN(C)C  growth inhibition    21.9
13  CCN(CC)CCCN1CCc2c([nH]c3ccccc23)C1c1cccnc1 (stereo not drawn)  growth inhibition    -4.2
14   COc1ccccc1/C=C/C(=O)c1sc(-c2cccnc2)nc1C  growth inhibition    38.5
15                Oc1ccc(Br)cc1C(=S)N1CCOCC1  growth inhibition     9.3
16  CC(C)C(NC(=O)C1CSC(C)(C)N1C=O)C(=O)O (stereo not drawn)  growth inhibition    -1.6
17                    C=Cc1ccc(-c2ccccc2)cc1  growth inhibition     7.1
18     CC1(C)C(CCO)CC1CCO (stereo not drawn)  growth inhibition    2.25
19  O=C(N/C=C\NC(=O)Nc1cccc(Cl)c1)Nc1cccc(Cl)c1  growth inhibition    40.8
20                       CCCCC(CCCC)c1ccccn1  growth inhibition   -15.1
21           CCCC(C)C(C)O (stereo not drawn)  growth inhibition   -21.4
22  COc1cc(-c2cc(=O)c3cc4c(cc3[nH]2)OCO4)cc(OC)c1O  growth inhibition   -19.9
23  O=C(Nc1ccccc1C(=O)N/N=C/c1ccc(Cl)cc1)c1ccccc1Cl  growth inhibition    49.2
24  CC1CCOCCCOC(=O)CCOCCC(=O)OCCCOCCCOC(=O)CCOCCC(=O)O1 (stereo not drawn)  growth inhibition     0.7
25  Cn1c(=O)c2sc3cc4c(cc3c2c2ccccc21)sc1c(=O)n(C)c2ccccc2c14  growth inhibition    23.2
26  COc1ccc2c(c1)C(Cc1ccc(Oc3cc(CC4c5cc(OC)ccc5CC[N+]4(C)C)ccc3OC)cc1)[N+](C)(C)CC2 (stereo not drawn)  growth inhibition    -5.9
27                 COc1ccc(Cc2ccc(OC)cc2)cc1  growth inhibition   -34.2
28  CCc1ccccc1NC(=O)C(=O)C(C(=O)c1ccc(OC)cc1)c1ccc(OC)cc1 (stereo not drawn)  growth inhibition      19
29  CC(C)N(Cc1ccccc1)C(=O)Nc1ccc(Cc2ccc(NC(=O)N(Cc3ccccc3)C(C)C)cc2)cc1  growth inhibition    -0.7
30     CCCCCCCCCCCCCCCC(=O)N=C(C(N)=O)C(N)=O  growth inhibition    4.25
31  O=[N+]([O-])c1ccc(-c2ccccc2-c2ccccc2)cc1  growth inhibition     3.9
32  C=C(Cl)/C(=C\Cl)CCC(Cl)C(C)C (stereo not drawn)  growth inhibition    19.6
33  O=C1C(=O)N(c2cc(Cl)ccc2Cl)C(=O)C(=O)C1c1nc2ccccc2s1  growth inhibition    -7.8
34            C/C(C=C(C#N)C#N)=C\c1ccc(F)cc1  growth inhibition    14.9
35  COc1ccc2c(c1)C/C(=C\c1ccc(O)c(OC)c1)C2=O  growth inhibition   -46.5
36  CC1(C)CCC2(C)CCC3(C)C(=CCC4C5(C)CCC(O)C(C)(C)C5CCC43C)C2C1 (stereo not drawn)  growth inhibition    0.85
37  CCOc1cccc(C=Nc2ccccc2SSc2ccccc2N=Cc2cccc(OCC)c2O)c1O  growth inhibition    42.2
38  CCCCCCCCCCCCOP(=O)(O)OCC(N)C(=O)O (stereo not drawn)  growth inhibition    10.7

====

test: NCI Yeast Anticancer Drug Screen. Data for the mec2-1 strain (AID 157); settings: S. cerevisiae mec2-1 strain, at 50.0 µM, hits give high values
Compounds without any hit were thinned out: in the full panel of roughly 79,000, 15% have a hit.
resultType: growth inhibition (%)

> print(dat)
                                    compound  result
 1  COc1ccc(C#CCC(OC2OC(CO)C(O)C(O)C2O)C(O)c2ccc(OC)c(OC)c2)cc1OC (configuration not stated)   -7.55
 2                                CSCCC(N)=O   -6.95
 3  C=C1C(=O)O[C@@H]2C(=O)[C@@H](C)[C@@H]3C=CC(=O)[C@@]3(C)[C@@H](OC(=O)/C(C)=C\C)[C@H]12   -14.3
 4  O=C(O)C(C1=CCCCC1)C1(O)CCCCC1 (configuration not stated)   -5.45
 5  CCCCc1c(O)c2c(=O)n(C)c(=O)n3c4ccccc4n(c1=O)c23    -9.7
 6           O=c1oc2ccccc2c(O)c1[N+](=O)[O-]   -11.2
 7  C=CCC(O)c1ccc2c(c1)OCO2 (configuration not stated)    13.3
 8  Cc1occc1C(=S)Nc1ccc(Cl)c(OCC(=O)OC(C)(C)C)c1    50.6
 9                       N#Cc1nc(C2CCC2)oc1N    5.85
10  CCCN(CCC)CCc1cc(C(C)=O)n(S(=O)(=O)c2ccc(C)cc2)c1   -17.8
11            CN1CN(C)C(c2ccncc2)=C1c1ccncc1   -47.5
12     Nc1nc2c(c(=O)[nH]1)CN(CCCN1CCOCC1)CN2   -26.1
13  COc1ccc(NS(=O)(=O)c2ccc(NCc3c4ccccc4nc4ccccc34)cc2)nn1     8.2
14                   Cn1ncc2c(N)nc(NCCO)nc21    4.75
15                           O=C(O)CCc1ccsc1    4.55
16  COc1cc(C)c(O)c(C/C=C(\C)CC2=C[C@@]3(C)CCC[C@@]3(C)[C@]3(CC(O)C(C)(C)O3)O2)c1 (some centres not stated)     6.2
17  OCC(O)C(O)C(O)CN=Cc1ccccc1O (configuration not stated)   -2.25

====

assay: NCI Yeast Anticancer Drug Screen. Data for the cln2 rad14 strain (AID 165);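 further: 0% = growth equal to vehicle treated cultures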; settings: S. cerevisiae cln2 rad14 strain, at 50.0 µM
The panel holds about 79,000 compounds, 15% with a hit somewhere; the sample as a whole holds those more often. Calls of active or inactive are those of the source. Rule as the data show it: active = growth inhibition above about 70%; inactive = the rest.
Outcomes: TRUE = active, FALSE = inactive

compound	className
ClCc1ccc(CCc2ccc(CCl)cc2)cc1	FALSE
S=c1[nH]c2ccccc2nc1NCc1ccccc1	FALSE
CCn1c2ccc(C(=O)CCCN(C)C)cc2c2cc(C(=O)CCCN(C)C)ccc21	FALSE
O=[N+]([O-])c1ccc(N=NC(=S)NNc2ccccc2)cc1	FALSE
COC(=O)c1cc([N+](=O)[O-])c(Br)s1	TRUE
C/C(=C/C(C)C)C(C)(C#N)C(N)=O (stereo not drawn)	FALSE
CCCCCCCC(=O)Oc1ccccc1	FALSE
O=C(O)c1ccccc1CC(Cc1ccccc1)C(=O)O (stereo not drawn)	FALSE
S=C1CC(c2ccc(Cl)cc2)Sc2ccccc2N1 (stereo not drawn)	FALSE
O=C1C(Cc2ccc(O)cc2)NC(=S)N1c1ccccc1 (stereo not drawn)	FALSE
COc1c(C)c(C)c(Br)c(C)c1C	FALSE
COC(C)CCOC(=O)c1ccccc1 (stereo not drawn)	FALSE
c1ccc2nc3c(nc2c1)sc1nc2ccccc2n13	FALSE
CC(=O)OCC1OC(OCC(OC(C)=O)C(OC(C)=O)C(OC(C)=O)c2cnn(-c3ccccc3)n2)C(OC(C)=O)C(OC(C)=O)C1OC(C)=O (stereo not drawn)	FALSE
O=C1/C(=C/c2ccco2)CC/C1=C\c1ccco1	FALSE
CC(C)(N)C(=O)O	FALSE
O=c1c2c3c(sc2nc2n1N=CN(c1ccc(F)cc1)C2)CCCC3	FALSE
CC1CN=C(Nc2ccc(S(N)(=O)=O)cc2)S1 (stereo not drawn)	FALSE
O=C(O)CCC(=O)NC1c2ccccc2Oc2ccccc21	FALSE
CCCCCCCCCC1(C(=O)OCC)OC1(C)C (stereo not drawn)	FALSE
CC(=O)Nc1ccc2nc(C)cc(Cl)c2c1	FALSE
CC1OC(OC2C(OC(=O)[C@]34CCC(C)(C)C[C@H]3C3=CC[C@@H]5[C@@]6(C)CC[C@H](OC7OC(C(=O)O)C(O)C(OC8OCC(O)C(O)C8O)C7O)C(C)(C)[C@@H]6CC[C@@]5(C)[C@]3(C)CC4)OCC(O)C2O)C(O)C(OC2OCC(O)C(O)C2O)C1OC1OCC(O)C(OC2OCC(O)C(O)C2O)C1O (stereo partly drawn)	FALSE
CO/C(=N\N=C\c1ccc(OC)c(OC)c1)c1ccncc1	FALSE
COc1ccc2nc3cc(Cl)ccc3c(NC(C)CCCN(C)C)c2n1 (stereo not drawn)	FALSE
Cc1cccc(C)c1NC(=O)C(=O)C(C#N)c1c(Cl)cccc1Cl (stereo not drawn)	FALSE
Nc1ccc(S(=O)(=O)n2c(=O)oc3cc(Cl)ccc32)cc1	FALSE
CN(/N=C/c1ccnc2ccccc12)c1ccc([N+](=O)[O-])cc1[N+](=O)[O-]	FALSE
O=C(OCC1OC(OC(=O)c2ccccc2)C(O)C1OC(=O)c1ccccc1)c1ccccc1 (stereo not drawn)	FALSE
N=C(CN1CCCCC1)N1CCCCC1	FALSE
CCCCCC(=C/c1ccccc1)/C=N/N1CCN(/N=C/C(=C/c2ccccc2)CCCCC)CC1	FALSE
COc1c(Cl)cc(Cl)c(C)c1C(C)C(=O)O (stereo not drawn)	FALSE
CCOC(=O)CCCCCSc1n[nH]c(=O)[nH]c1=O	FALSE
Oc1ccc2nccnc2c1	FALSE
S=C(Nc1ccc(Cl)cc1)Nc1ccc(Cc2ccc(NC(=S)Nc3ccc(Cl)cc3)cc2)cc1	FALSE
CCOC(=O)C(C(=O)OCC)=C(C)C	FALSE
CCCN(CCC)S(=O)(=O)c1ccc(NC(=O)Oc2ccccc2OC)cc1	FALSE
CN(C)c1nc2nccnc2c(=O)[nH]1	FALSE
CN(C)CCCn1ncc(Sc2cc([N+](=O)[O-])ccc2N)c(Cl)c1=O	FALSE
